System: THP-1 viability, CellTiter-Glo luminescence, 72 h
procedure-details: PubChem AID 2252

| line-notation | EC50 |
| --- | --- |
| CCOC(=O)c1c(N)sc(C(=O)Nc2ccc3c(c2)OCO3)c1C | 42.7 µM |
| CCOC(=O)N1CCN(Cc2cc(Cl)c3cccnc3c2O)CC1 | 3.12 µM |
| S=C1SCN(Cc2cccnc2)CN1Cc1cccnc1 | 3.92 µM |
| Cc1nc(N=Nc2ccc(O)cc2)n[nH]1 | 28.2 µM |
| N#C/C(=N\Nc1ccc([N+](=O)[O-])cc1)C(N)=S | 29 µM |

###

Test system: THP-1 viability, CellTiter-Glo luminescence, 72 h
procedure-details: PubChem AID 2252
# EC50 per record follows

| compound | EC50 |
| --- | --- |
| COc1c(N2CCN(C(=S)NCc3ccccc3)C(C)C2)c(F)cc2c(=O)c(C(=O)O)cn(C3CC3)c12 (centres undefined) | 17.9 µM |
| CCCCCC[N+](C)(C)CC/C=C1/c2ccccc2Sc2ccc(Cl)cc21 | 5.39 µM |
| O=C1c2ccccc2C2=Nc3ccccc3SC(c3ccccc3F)C12 (centres undefined) | 13.8 µM |
| CCCCCCCCCCCCCCCCn1cc[n+](C)c1 | 0.74 µM |
| CCOc1cc(Br)cc(/C=N/NC(=O)c2cccnc2)c1O | 7.58 µM |
| Clc1ccc(C(c2ccc(Cl)cc2)n2cc[n+](CC(OCc3ccc(Cl)cc3Cl)c3ccc(Cl)cc3Cl)c2)cc1 (centres undefined) | 1.45 µM |
| Cc1ccc(O)c(Nc2c3ccccc3nc3ccccc23)c1 | 14.2 µM |
| Cc1cccc(Nc2nc(NCc3ccco3)c3ccccc3n2)c1 | 4.43 µM |
| O=C(N/N=C/c1ccccn1)c1cccs1 | 26.4 µM |
| O=C(N/N=C/c1c(O)ccc2ccccc12)c1ccc(CO)nc1 | 1.41 µM |
| O=C(/C=C/c1ccc(F)cc1)NC(=S)NNC(=O)c1cnccn1 | 6.17 µM |
| O=c1cc(-c2ccccc2)cc(-c2ccccc2)n1O | 14 µM |
| CC1CCN(CCCNC(=O)c2ccc3c(=O)n(Cc4ccc(Cl)cc4)c(=S)[nH]c3c2)CC1 | 16.8 µM |
| COc1cccc(Nc2nc(NCCO)c3ccccc3n2)c1 | 2.26 µM |
| NC1=NC[C@H](Cc2ccc(O)cc2)N1CCCCC1CCCCC1 | 1.73 µM |
| CCOc1cc(CNCCCN2CCOCC2)cc(Br)c1OCC(=O)Nc1cccc(C(F)(F)F)c1 | 8.24 µM |
| COc1cccc2[nH]c3c(N4CCN(Cc5ccc6c(c5)OCO6)CC4)ncnc3c12 | 42.2 µM |
| CC(C)[C@@H](C(=O)NC1CCCC1)N1C(=O)N2CCc3c([nH]c4ccccc34)[C@@]2(C)C1=O | 45.5 µM |
| C#CCOCCOCCOCCNc1nc(N2CCN(C(=O)CCCCCCCCCCNC(=O)[C@H](CCCCN)n3cc(C)nn3)CC2)nc(N2CCN(C(=O)CCCCCCCCCCNC(=O)[C@@H]([C@H](C)CC)n3cc(CCCCCN)nn3)CC2)n1 | 12.7 µM |
| CN1CCN(CCCN2c3ccccc3Sc3ccc(C(F)(F)F)cc32)CC1 | 10.3 µM |
| Nc1nc(=S)c2[nH]cnc2[nH]1 | 0.32 µM |
| CCc1cccc2c1Sc1ccccc1CC2N1CCNCC1 (centres undefined) | 9.72 µM |
| Cc1c2ccncc2c(C)c2c1[nH]c1ccccc12 | 2.72 µM |
| COc1ccc(C(=O)C[n+]2cc(Br)cc3ccccc32)cc1[N+](=O)[O-] | < 0.1 µM |
| CCCNC1=C(C)C(=O)C2=C(C1=O)C(COC(N)=O)[C@]1(OC)C3NC3CN21 (some centres undefined) | 8.84 µM |
| COc1cccc(/C=N/NC(=O)CNC(=O)CCc2ccccc2)c1O | 21.7 µM |
| CCC(/C=C1\Sc2ccc(OC)cc2N1CCO)=C\c1sc2ccc(OC)cc2[n+]1CCO | 8.14 µM |
| NC(N)=N/N=C/c1ccc(OCc2ccc(Cl)cc2Cl)cc1 | 5.86 µM |
| Nc1nc(Nc2ccc(Cl)cc2)nc2ccccc12 | 6.06 µM |
| CC(NCC(O)COc1ccc2ccccc2c1)c1ccccc1 (centres undefined) | 6.71 µM |
| C#CCOCCOCCOCCNc1nc(N2CCN(C(=O)CCCCCCCCCCNC(=O)[C@H](CO)n3cc(CCCCCN)nn3)CC2)nc(N2CCN(C(=O)CCCCCCCCCCNC(=O)[C@H](CCCN=C(N)N)n3cc(C[C@@H](C)CC)nn3)CC2)n1 | 6.31 µM |
| CCCCn1c(=N)n(CC(=O)c2ccc(Br)s2)c2ccccc21 | 5.43 µM |
| O=C(/C=C/c1cc(Br)ccc1O)c1ccco1 | 8.79 µM |
| c1ccc2c(c1)C(=NC1CCCCC1)NC2=NC1CCCCC1 | 4.25 µM |
| C[C@H]1O[C@@H](n2cc(F)c(=O)[nH]c2=O)[C@H](O)[C@@H]1O | 26.7 µM |
| CC(C)(C)Nc1nc(-c2ccccn2)nc2ccccc12 | 3.45 µM |
| CNCCCCOc1ccc(C(C)(C)C)cc1Cl | 21.8 µM |
| O=C(N/N=C/c1cccc(OCc2ccccc2)c1)c1cccs1 | 40.4 µM |
| CN(C)CCCN(C(=O)c1ccc2c(c1)CCCC2)c1nc2ccc(Cl)cc2s1 | 9.82 µM |
